- assayRemarks: In vitro metabolism in liver microsomes, mouse
- Assay type: in vitro ADME
- details: mouse, liver microsomes, pH 7.4, mouse liver microsomes
Measured half-life at 0.193 µM by item
readoutName: half-life at 0.193 µM

{"columns": ["compound", "measured"],
 "data": [
  ["CCN1CCN(Cc2ccc(NC(=O)NCCCCC(=O)Nc3ccc(F)cc3)cc2)CC1", "254 min"],
  ["CCN1CCN(Cc2ccc(NC(=O)NCCCCC(=O)Nc3ccccc3)cc2)CC1", "140 min"]
]}

###

- assayRemarks: In vitro metabolism in liver microsomes, rat
- Type: in vitro ADME
- details: pH 7.4; rat liver microsomes
readoutName: half-life at 0.193 µM (min)

{"columns": ["compound", "readoutName", "measured"],
 "data": [
  ["CCN1CCN(Cc2ccc(NC(=O)NCCCCC(=O)Nc3ccccc3)cc2)CC1", "half-life at 0.193 µM", 171]
]}
